experiment: solvent given as SMILES; details: in CCCCOCCCC
If the reported emission maximum equals or exceeds 400 nm, assign Y. If not, assign N.

IN: Confirm if emission maximum reported for the compound CN(C)c1cc(C#N)c(N(C)C)c(C#N)c1 is 400 nm or above.
OUT: Y

---

experiment: solvent given as SMILES; settings: in CO
Lab note: anything with emission maximum below 500 nm is marked class 1; values at 500 nm or higher are marked class 0.

IN: Item CN(C)c1ccc(-c2nc3c(c4c2-c2ccccc2CC4)-c2ccccc2CC3)cc1 : emission maximum beneath 500 nm, strictly?
OUT: class 1

IN: Item CCOC(=O)COc1ccc(C(c2c(C)[nH]c3ccccc23)c2c(C)[nH]c3ccccc23)cc1 : emission maximum beneath 500 nm, strictly?
OUT: class 1

IN: Item COc1ccc2c(c1)N(c1ccccc1-c1ccccc1)c1cc3c(cc1=N2)Oc1c(cc(C(C)(C)C)cc1C(C)(C)C)N=3 : emission maximum beneath 500 nm, strictly?
OUT: class 0

IN: Item CCCCCCc1ccsc1-c1ccc(-c2sc(C(=O)O)cc2CCCCCC)s1 : emission maximum beneath 500 nm, strictly?
OUT: class 1

---

test: solvent given as SMILES; details: in Cc1ccccc1
measured.endpoint: emission maximum

Before answering, review these 5 worked examples.
[
  {
    "molecule": "O=Cc1cc(C=O)c2ccc3c(N4CCCCC4)cc(N4CCCCC4)c4ccc1c2c43",
    "value.observed": "582 nm"
  },
  {
    "molecule": "c1ccc2cc(-n3cnc4ccccc43)ccc2c1",
    "value.observed": "374 nm"
  },
  {
    "molecule": "Fc1ccc(-c2nc3n(c2-c2ccncc2)CCS3)cc1",
    "value.observed": "412 nm"
  },
  {
    "molecule": "CC(=O)O[B-]1(OC(C)=O)OC(/C=C/c2ccc(C)cc2)=CC(/C=C/c2ccc(C)cc2)=[O+]1",
    "value.observed": "481 nm"
  },
  {
    "molecule": "c1ccc(-c2ccc3c(c2)c2cc(-c4ccccc4)ccc2n3-c2ccc3c(c2)c2cc(-n4c5ccc(-c6ccccc6)cc5c5cc(-c6ccccc6)ccc54)ccc2n3-c2ccc(-c3nc(-c4ccccc4)nc(-c4ccccc4)n3)cc2)cc1",
    "value.observed": "457 nm"
  }
]

IN: Suppose we examine the molecule N#Cc1ccc2c(c1)CCc1nc(-c3ccc([N+](=O)[O-])cc3)c3c(c1-2)CCc1cc(C#N)ccc1-3 ; what emission maximum value has been reported?
OUT: 443 nm

IN: Suppose we examine the molecule Cc1cc(C)c2c(c1)c1cc(C)cc(C)c1n2-c1ccc2c(c1)B(c1c(C(C)C)cc(C(C)C)cc1C(C)C)c1cc(-n3c4c(C)cc(C)cc4c4cc(C)cc(C)c43)ccc1N2c1ccccc1 ; what emission maximum value has been reported?
OUT: 441.5 nm

IN: Suppose we examine the molecule Cc1cc(=O)oc2cc3c4ccccc4c4ccccc4c3cc12 ; what emission maximum value has been reported?
OUT: 410 nm

IN: Suppose we examine the molecule CCC1=C(C)C2=Cc3c4ccccc4c4n3[B-](c3ccc5ccc6cccc7ccc3c5c67)(Oc3ccccc3-4)[N+]2=C1C (centres undefined) ; what emission maximum value has been reported?
OUT: 642 nm

---

Measured emission maximum, listed per entry for reference.
experiment: solvent given as SMILES; settings: in O=P(c1ccccc1)(c1ccccc1)c1ccccc1Oc1ccccc1P(=O)(c1ccccc1)c1ccccc1
Give just the number in nm; leave the unit off.

Before answering, review these 6 worked examples.
[
  {
    "item.smiles": "CC1(C)c2ccccc2N(c2ccc3c(c2)Oc2ccccc2S3(=O)=O)c2ccccc21",
    "emission maximum / nm": 458
  },
  {
    "item.smiles": "c1ccc(-c2ccc3c(c2)c2cc(-c4ccccc4)ccc2n3-c2ccc3c(c2)c2cc(-n4c5ccc(-c6ccccc6)cc5c5cc(-c6ccccc6)ccc54)ccc2n3-c2ccc(-c3nc(-c4ccccc4)nc(-c4ccccc4)n3)cc2)cc1",
    "emission maximum / nm": 480
  },
  {
    "item.smiles": "CC1(C)c2ccccc2-n2c(-c3ccc(N4c5ccccc5Oc5ccccc54)cc3)nc3cccc1c32",
    "emission maximum / nm": 485
  },
  {
    "item.smiles": "CC1(C)c2ccccc2N(c2c(F)cc(-c3nnc(-c4ccccc4)o3)cc2F)c2ccccc21",
    "emission maximum / nm": 495
  },
  {
    "item.smiles": "CC1(C)c2ccccc2N(c2ccccc2)c2ccc(-c3ccc(C(=O)c4ccc(-c5ccc6c(c5)C(C)(C)c5ccccc5N6c5ccccc5)cc4)cc3)cc21",
    "emission maximum / nm": 475
  },
  {
    "item.smiles": "c1ccc2c(c1)c1ccccc1n2-c1ccc(-c2nnc(-c3ccc(-n4c5ccccc5c5ccccc54)cc3)o2)cc1",
    "emission maximum / nm": 414
  }
]

IN: Suppose we examine the compound COc1ccc(-c2nc(-c3ccc(OC)cc3C)nc(-c3ccc(N4c5ccccc5C5(c6ccccc6-c6ccccc65)c5ccccc54)cc3C)n2)c(C)c1 ; what emission maximum value has been reported?
OUT: 469

IN: Suppose we examine the compound Cc1ccc(N(c2ccc(C)cc2)c2ccc3c(c2)c2cc(N(c4ccc(C)cc4)c4ccc(C)cc4)ccc2n3-c2ccc(-c3nc4cccc5c4n3-c3ccccc3C5(C)C)cc2)cc1 ; what emission maximum value has been reported?
OUT: 491

IN: Suppose we examine the compound Cc1cc(C)c(B(c2c(C)cc(C)cc2C)c2c(C)cc(-n3c4ccc(N(c5ccccc5)c5ccccc5)cc4c4cc(N(c5ccccc5)c5ccccc5)ccc43)cc2C)c(C)c1 ; what emission maximum value has been reported?
OUT: 487

IN: Suppose we examine the compound c1ccc(-c2nc(-c3ccccc3)nc(-c3ccc(N4c5ccccc5C(c5ccccc5)(c5ccccc5)c5ccccc54)cc3)n2)cc1 ; what emission maximum value has been reported?
OUT: 472.98

IN: Suppose we examine the compound c1ccc(-c2nc(-c3ccccc3)nc(-c3ccc(-n4c5ccccc5c5c6oc7ccccc7c6ccc54)cc3)n2)cc1 ; what emission maximum value has been reported?
OUT: 429.14

IN: Suppose we examine the compound Cc1cc(N2c3ccccc3C(C)(C)c3ccccc32)ccc1-c1cc(-c2ccc(N3c4ccccc4C(C)(C)c4ccccc43)cc2C)ncn1 ; what emission maximum value has been reported?
OUT: 477

IN: Suppose we examine the compound N#Cc1c(-c2ccc(N(c3ccccc3)c3ccccc3)cc2)c(C#N)c(-c2ccc(N(c3ccccc3)c3ccccc3)cc2)c(C#N)c1-c1ccc(N(c2ccccc2)c2ccccc2)cc1 ; what emission maximum value has been reported?
OUT: 533
